Field: protein stability index. Provide a value for each of the variants that follow.
B1: C1orf55 (parent)
chain: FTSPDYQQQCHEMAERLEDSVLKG

variants of: B1; assay: protein stability index of a GFP-peptide fusion (GPS, HEK-293T) (PSI 1-6); higher = more stable; settings: c terminus: a fixed tail appended;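 further: lentivirally expressed fusions sorted by FACS into six bins by GFP to DsRed ratio, PSI derived from sequencing read proportions per bin multiplied by bin number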
Numbers only.

Reported protein stability index for FTSPDYQQQCHEMAERLEISVLKG : what is it?
2.86

// each variant listed below needs its protein stability index
1. FTSPDYQQQCHEMAERLEDKVLKG
2. FTSPDYQQQCHEMAERLEDSVVKG
3. FTSPDFQQQCHEMAERLEDSVLKG
4. FTSPDYQQQCHEMAEWLEDSVLKG
5. FTMPDYQQQCHEMAERLEDSVLKG

1.75
2.75
1.84
1.9
2.96

Give one value of protein stability index per listed variant.
1. FTSPDYQQQCGEMAERLEDSVLKG
2. LTSPDYQQQCHEMAERLEDSVLKG
3. FTSPDYQQQCHEMAERLEDSVLLG
4. FSSPDYQQQCHEMAERLEDSVLKG
5. FTSPDYQQVCHEMAERLEDSVLKG
6. FTSWDYQQQCHEMAERLEDSVLKG
7. FTSPDYQQQCHEMAERLFDSVLKG
8. FTSPDYQQQCHEMAERTEDSVLKG

1: 2.35; 2: 5; 3: 2.37; 4: 3.39; 5: 2.21; 6: 2.61; 7: 1.65; 8: 2.9

Look up protein stability index for the entries below, preserving their order.
1. FTSPDYQQQCHEMAERLEDSVLVG
2. FTSPDYAQQCHEMAERLEDSVLKG
3. FTSPDYQQQRHEMAERLEDSVLKG
4. FTSPDDQQQCHEMAERLEDSVLKG
5. FTSPDYFQQCHEMAERLEDSVLKG

3.3
1.12
3.69
4.95
3.33

I'm hoping you can list protein stability index for every variant here, please.
1. FTSPDYQQQCHEDAERLEDSVLKG
2. FTSPDYQQQCHEMAERLEDSVNKG
3. FTSPDYQQQCHDMAERLEDSVLKG

2.55
2.93
2.56

All values here come from the supplement of paper PMC10567573.
